Experiment: Particle size distribution by dynamic light scattering (Malvern Mastersizer 2000)
Type: physicochemical
Conditions: dynamic light scattering
# maps each entry to its particle size D(0.98)
Provide the reading as a plain figure in microns.

| COMPOUND | particle size D(0.98) (microns) |
| --- | --- |
| CCC(=O)O[C@]1(C(=O)SCF)[C@H](C)C[C@H]2[C@@H]3C[C@H](F)C4=CC(=O)C=C[C@]4(C)[C@@]3(F)[C@@H](O)C[C@@]21C [Example 15, fluticasone propionate] | 9.81 |
| CCC(=O)O[C@]1(C(=O)SCF)[C@H](C)C[C@H]2[C@@H]3C[C@H](F)C4=CC(=O)C=C[C@]4(C)[C@@]3(F)[C@@H](O)C[C@@]21C [Example 13, fluticasone propionate] | 5.82 |
| CCC(=O)O[C@]1(C(=O)SCF)[C@H](C)C[C@H]2[C@@H]3C[C@H](F)C4=CC(=O)C=C[C@]4(C)[C@@]3(F)[C@@H](O)C[C@@]21C [Example 16, fluticasone propionate] | 11.35 |

Continue with the compound presented below.
Incoming: Quick check: particle size D(0.98) of CCC(=O)O[C@]1(C(=O)SCF)[C@H](C)C[C@H]2[C@@H]3C[C@H](F)C4=CC(=O)C=C[C@]4(C)[C@@]3(F)[C@@H](O)C[C@@]21C [Example 14, fluticasone propionate] ?
Outgoing: 6.44

###

Experiment: Particle size distribution by dynamic light scattering (Malvern Mastersizer 2000)
Assay type: physicochemical
Settings: light scattering
PARAMETER: Particle size distribution D(v, 0.1), 0.1 quantile (μ)
Form entry: value (μ) — number only.

Some solved entries appear below for comparison.
| COMPOUND | RECORDED MEASUREMENT |
| --- | --- |
| CCC(=O)O[C@]1(C(=O)SCF)[C@H](C)C[C@H]2[C@@H]3C[C@H](F)C4=CC(=O)C=C[C@]4(C)[C@@]3(F)[C@@H](O)C[C@@]21C [Example 15, fluticasone propionate] | 1.06 |
| CCC(=O)O[C@]1(C(=O)SCF)[C@H](C)C[C@H]2[C@@H]3C[C@H](F)C4=CC(=O)C=C[C@]4(C)[C@@]3(F)[C@@H](O)C[C@@]21C [Example 14, fluticasone propionate] | 0.96 |

Incoming: Can you share its Particle size distribution D(v, 0.1), 0.1 quantile? I mean this compound: CCC(=O)O[C@]1(C(=O)SCF)[C@H](C)C[C@H]2[C@@H]3C[C@H](F)C4=CC(=O)C=C[C@]4(C)[C@@]3(F)[C@@H](O)C[C@@]21C [Example 16, fluticasone propionate]
Outgoing: 1.90

Incoming: Requested read-out: Particle size distribution D(v, 0.1), 0.1 quantile. Entry: CCC(=O)O[C@]1(C(=O)SCF)[C@H](C)C[C@H]2[C@@H]3C[C@H](F)C4=CC(=O)C=C[C@]4(C)[C@@]3(F)[C@@H](O)C[C@@]21C [Example 13, fluticasone propionate]
Outgoing: 0.95

###

Test: Particle size distribution by dynamic light scattering (Malvern Mastersizer 2000)
Type: physicochemical
Conditions: dynamic light scattering
Here, each record is paired with measured particle size D(0.20) data.
Numbers only; they are read as micron.

Recorded results for 3 compounds are shown here.
| COMPOUND | particle size D(0.20) [micron] |
| --- | --- |
| CCC(=O)O[C@]1(C(=O)SCF)[C@H](C)C[C@H]2[C@@H]3C[C@H](F)C4=CC(=O)C=C[C@]4(C)[C@@]3(F)[C@@H](O)C[C@@]21C [Example 14, fluticasone propionate] | 1.27 |
| CCC(=O)O[C@]1(C(=O)SCF)[C@H](C)C[C@H]2[C@@H]3C[C@H](F)C4=CC(=O)C=C[C@]4(C)[C@@]3(F)[C@@H](O)C[C@@]21C [Example 16, fluticasone propionate] | 2.46 |
| CCC(=O)O[C@]1(C(=O)SCF)[C@H](C)C[C@H]2[C@@H]3C[C@H](F)C4=CC(=O)C=C[C@]4(C)[C@@]3(F)[C@@H](O)C[C@@]21C [Example 13, fluticasone propionate] | 1.31 |

Now for another entry.
Incoming: Look up particle size D(0.20) for this compound: CCC(=O)O[C@]1(C(=O)SCF)[C@H](C)C[C@H]2[C@@H]3C[C@H](F)C4=CC(=O)C=C[C@]4(C)[C@@]3(F)[C@@H](O)C[C@@]21C [Example 15, fluticasone propionate]
Outgoing: 1.52
